# ASSAYED SYSTEM: Prkcn (Homo sapiens, UniProt O94806)
# Sequence (O94806 whole entry): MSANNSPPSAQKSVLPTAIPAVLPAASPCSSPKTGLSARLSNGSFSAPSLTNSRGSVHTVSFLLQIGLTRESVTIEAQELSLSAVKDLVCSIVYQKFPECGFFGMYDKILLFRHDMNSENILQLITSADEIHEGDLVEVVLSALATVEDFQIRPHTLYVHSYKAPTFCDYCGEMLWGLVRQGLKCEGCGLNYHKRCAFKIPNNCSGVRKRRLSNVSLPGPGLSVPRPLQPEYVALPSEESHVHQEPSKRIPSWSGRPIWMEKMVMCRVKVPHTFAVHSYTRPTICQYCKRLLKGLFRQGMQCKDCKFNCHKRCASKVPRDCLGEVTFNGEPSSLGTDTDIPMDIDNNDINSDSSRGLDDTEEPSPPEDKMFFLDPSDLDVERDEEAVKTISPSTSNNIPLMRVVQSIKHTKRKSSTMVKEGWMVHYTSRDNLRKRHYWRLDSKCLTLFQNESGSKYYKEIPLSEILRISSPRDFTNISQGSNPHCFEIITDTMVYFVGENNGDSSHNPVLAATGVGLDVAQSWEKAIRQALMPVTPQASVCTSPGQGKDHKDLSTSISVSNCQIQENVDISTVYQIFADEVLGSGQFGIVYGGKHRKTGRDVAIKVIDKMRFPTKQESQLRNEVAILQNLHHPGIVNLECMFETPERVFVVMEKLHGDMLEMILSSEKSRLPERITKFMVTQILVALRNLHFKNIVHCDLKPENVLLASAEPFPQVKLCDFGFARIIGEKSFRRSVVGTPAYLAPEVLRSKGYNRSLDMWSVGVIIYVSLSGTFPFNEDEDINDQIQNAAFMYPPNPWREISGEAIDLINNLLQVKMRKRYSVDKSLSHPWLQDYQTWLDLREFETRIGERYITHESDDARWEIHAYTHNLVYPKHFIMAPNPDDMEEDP
pIC50: −log10 of the molar value.
READOUT KIND: pIC50

{"columns": ["MOLECULE", "REPORTED RESULT"],
 "data": [
  ["CC(C)CCN[C@@H]1CCc2cc(O)c(N3CC(=O)NS3(=O)=O)c(F)c2C1 [AC484, ABBV-CLS-484]", "< 5.00"]
]}

---

# ASSAYED SYSTEM: STK16 (Homo sapiens, UniProt O75716)
# Sequence (O75716 whole entry): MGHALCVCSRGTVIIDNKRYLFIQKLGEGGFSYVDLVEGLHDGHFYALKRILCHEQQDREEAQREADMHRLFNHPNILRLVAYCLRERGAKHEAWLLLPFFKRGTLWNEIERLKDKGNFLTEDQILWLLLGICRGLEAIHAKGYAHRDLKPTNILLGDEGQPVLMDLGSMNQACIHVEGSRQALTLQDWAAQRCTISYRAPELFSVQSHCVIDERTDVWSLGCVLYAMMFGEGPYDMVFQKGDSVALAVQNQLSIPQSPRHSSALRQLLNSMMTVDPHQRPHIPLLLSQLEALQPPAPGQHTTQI
READOUT KIND: IC50

{"columns": ["LINE NOTATION", "READOUT KIND", "REPORTED RESULT"],
 "data": [
  ["CC(C)CCN[C@@H]1CCc2cc(O)c(N3CC(=O)NS3(=O)=O)c(F)c2C1", "IC50", "> 10 µM"]
]}
